Assign EC50 to each entry below.
- target or system: KcsA tetramer (Streptomyces lividans)
- Sequence (P0A334 1-160): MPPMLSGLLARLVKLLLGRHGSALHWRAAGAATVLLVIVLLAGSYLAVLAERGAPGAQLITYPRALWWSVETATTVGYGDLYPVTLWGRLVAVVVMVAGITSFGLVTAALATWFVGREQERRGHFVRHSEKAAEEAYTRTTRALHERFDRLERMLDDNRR
- assay info: Tetramer protection titration of stabilizing cations against high temperature
- Assay type: binding
- test parameters: K0.5 (cation concentration at half-maximal stabilization), fit to Eq. 1, heated 10 min at 90°C; 100 mM choline Cl, 10 mM Hepes-Tris pH 7.4
Give the value, in units of µM, as a plain number.

Fill in: EC50 of "[Rb+]" is ___
1700

Now give it for [Tl+] [Tl^+, Tl acetate] too.
1100

Another: "[K+]"
1500

Same for "[Cs+]"
4100

---

- target or system: KcsA tetramer (Streptomyces lividans)
- Sequence (P0A334 1-160): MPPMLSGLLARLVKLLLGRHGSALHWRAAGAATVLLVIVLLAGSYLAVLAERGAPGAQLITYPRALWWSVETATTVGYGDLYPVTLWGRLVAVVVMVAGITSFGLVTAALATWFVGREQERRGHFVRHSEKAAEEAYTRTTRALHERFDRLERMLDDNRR
- Format: binding
recorded metric: IC50

# value lookup — system KcsA tetramer (Streptomyces lividans), readout IC50, item "[Li+]"
57 mM

---

- target or system: KcsA tetramer (Streptomyces lividans)
- assay info: Tetramer protection titration of stabilizing cations against high temperature
- Format: binding
- test parameters: K0.5 of tetramer protection titration, heated 10 min at 85°C; 100 mM choline Cl
recorded metric: EC50 (µM)
Number only, in µM; omit the unit.

Need EC50, item "[Sr+2]"
11
